B1: tRNA (parent)
chain: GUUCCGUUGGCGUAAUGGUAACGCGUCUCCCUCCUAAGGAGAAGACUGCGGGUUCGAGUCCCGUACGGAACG

variants of: B1; assay: yeast fitness, log relative to wild type (ln ratio); higher = fitter; tRNA-Arg(CCU), competitive growth, 37 C, 1 M NaCl
Output fulfilled for yeast fitness (ln) not less than -0.3; output not fulfilled otherwise.

In [3]: df
Out[3]:
                       var    answerlabel
0  G1A A43C A69G A70G C71U  not fulfilled

## Input Form field: yeast fitness (ln) at least -0.3? Entry: U2C A43C C46U A69G A70G C71U
## Output fulfilled

## Input Reported yeast fitness (ln) at or above -0.3? G1A G6U C27U A43C C66U A69G A70U C71U
## Output not fulfilled

## Input Is the recorded value of yeast fitness (ln) equal to or greater than -0.3 for this variant? G6U C27U A43C C46U A69G A70G C71U
## Output not fulfilled

## Input Check the entry U2C G6U A43C C66U A70G : does yeast fitness (ln) equal or exceed -0.3?
## Output fulfilled

## Input Kindly determine if yeast fitness (ln) recorded for U2C G6U C46U C71U is above or exactly -0.3.
## Output fulfilled

## Input Could you please find out whether G1A U2G G6A C27U C46U C66U A69G A70U C71U has yeast fitness (ln) that meets -0.3 or exceeds it?
## Output not fulfilled

## Input I'd appreciate it if you could say whether G1A C27U C46U C66A A70G has yeast fitness (ln) at least equal to -0.3.
## Output fulfilled

## Input Reported yeast fitness (ln) at or above -0.3? G6U A43C C46U A70U C71U
## Output fulfilled

## Input Assess whether reported yeast fitness (ln) for U2C A43C C46U A69G A70G sits at -0.3 or higher.
## Output fulfilled

## Input State whether the measured yeast fitness (ln) reaches -0.3, counting equality as reaching it, for G1A G6A C46U C66A A69G A70G C71U
## Output fulfilled

## Input For this variant, is measured yeast fitness (ln) -0.3 or higher? U2G G6U C66U A69G A70U C71U
## Output not fulfilled

## Input Is it the case that G1A C66U A70U has yeast fitness (ln) reaching or exceeding -0.3?
## Output fulfilled

## Input Can G1A C27U A43C C46U C66U A70U C71U be said to have yeast fitness (ln) at or above -0.3?
## Output not fulfilled

## Input Determine whether measured yeast fitness (ln) meets or exceeds -0.3 for G1A U2G A43C C66U
## Output fulfilled

## Input For this variant, is measured yeast fitness (ln) -0.3 or higher? G1A G6U C27U A43C C46U C66A A69G A70U C71U
## Output not fulfilled

## Input Assess whether reported yeast fitness (ln) for G1A U2G G6A C27U A43C A69G A70G C71U sits at -0.3 or higher.
## Output not fulfilled

## Input Is yeast fitness (ln) at least -0.3? Consider G1A C27U C46U C66A A69G A70G C71U
## Output fulfilled

## Input Check if yeast fitness (ln) >= -0.3 (inclusive). Item: G1A U2C G6U C27U C66U A70U
## Output fulfilled

## Input Could you verify whether the entry G6U A43C C66A A69G C71U shows yeast fitness (ln) of no less than -0.3?
## Output not fulfilled

## Input Quick check: does U2G G6A A43C C66U C71U have yeast fitness (ln) greater than or equal to -0.3?
## Output not fulfilled

## Input Confirm if yeast fitness (ln) reported for the variant U2G G6U C46U C66A A70G C71U is -0.3 or above.
## Output fulfilled
